# test protocol: Solubility test Form α vs Form I
# details: methanol, organic solvent or mixture, thermodynamic from solid
attribute measured: solubility (mg/mL)
The answer is to be given in mg/mL; state only the numeric part.

State the recorded solubility for this entry: O=C(CCCCCCC(=O)Nc1ccccc1)NO [Form α, suberoylanilide hydroxamic acid]
30

---

# test protocol: Solubility test Form α vs Form I
# details: HCl 2M, aqueous buffer, thermodynamic from solid
attribute measured: solubility (µg/mL)
The answer is to be given in µg/mL; state only the numeric part.

State the recorded solubility for this entry: O=C(CCCCCCC(=O)Nc1ccccc1)NO [Form α, suberoylanilide hydroxamic acid]
190

---

# test protocol: physchem
# details: aqueous buffer, thermodynamic from solid
attribute measured: solubility

State the recorded solubility for this entry: O=C(CCCCCCC(=O)Nc1ccccc1)NO [Form I, suberoylanilide hydroxamic acid]
100 µg/mL
